Literature-derived log10 of IC50 for Melanocortin receptor 4 (Homo sapiens) follows.
Please interpret these as log10 of IC50 where IC50 is in nM.

structure smiles string: Cc1nnc(C(C)(C)[C@H]2CC3(CCN(C(=O)[C@@H]4CN(C(C)(C)C)C[C@H]4c4ccc(F)cc4F)CC3)c3cc(Cl)c(C)cc32)o1
outcome measure: log10 of IC50
measured result: 0.28

structure smiles string: CN1CCN[C@@H](C(=O)N[C@@H](Cc2ccc(F)cc2)C(=O)N2CCC(CC3CC3)(C(=O)NC(C)(C)C)CC2)C1
outcome measure: log10 of IC50
measured result: 2.92

structure smiles string: Cc1cc2c(cc1Cl)C1(CCN(C(=O)[C@@H]3CCN(C(C)(C)C)C[C@H]3c3ccc(F)cc3F)CC1)C[C@@H]2C(C)(C)c1ncnn1C
outcome measure: log10 of IC50
measured result: 0.23

structure smiles string: CCN1CCC(C(=O)N[C@H](Cc2ccc(Cl)cc2)C(=O)N2CCN(c3ccccc3N(CC3CC3)S(C)(=O)=O)CC2)CC1
outcome measure: log10 of IC50
measured result: 2.04

Under Melanocortin receptor 4 (Homo sapiens): log10 of IC50 value of "CC(=O)N[C@@H]1C(=O)N[C@@H](CCC(=O)O)C(=O)N[C@@H](Cc2c[nH]cn2)C(=O)N[C@H](Cc2ccccc2)C(=O)N[C@@H](CCCN=C(N)N)C(=O)N[C@@H](Cc2c[nH]c3ccccc23)C(=O)N[C@H](C(=O)N2CCC[C@H]2C(=O)N2CCC[C@H]2C(=O)N[C@@H](CCCCN)C(=O)N[C@@H](CC(=O)O)C(N)=O)CSSC1(C)C" ? 3.04

Under Melanocortin receptor 4 (Homo sapiens): log10 of IC50 value of "CN1CCN[C@@H](C(=O)N[C@@H](Cc2ccc(F)cc2)C(=O)N2CCC(C(=O)NC(C)(C)C)(C3(C)CCCCC3)CC2)C1" ? 1.56

---

Literature-derived IC50 for Melanocortin receptor 4 (Homo sapiens, UniProt P32245) follows.
Number only, in nM; omit the unit.

Answered examples (2):
compound: CN(c1ccccc1N1CCN(C(=O)[C@@H](Cc2ccc(Cl)cc2)NC(=O)[C@@H]2Cc3ccccc3CN2)CC1)S(C)(=O)=O
IC50 [nM]: 210

compound: CS(=O)(=O)N1CC2(CCN(C(=O)[C@@H](Cc3ccc(Cl)cc3)NC(=O)[C@H]3Cc4ccccc4CN3)CC2)c2ccccc21
IC50 [nM]: 66

Under Melanocortin receptor 4 (Homo sapiens, UniProt P32245): IC50 value of "CS(=O)(=O)N(CC1CC1)c1ccccc1N1CCN(C(=O)[C@H](CC(=O)N2CCN(C(=O)c3ccccc3)CC2)Cc2ccc(Cl)cc2)CC1" ? 4.4

Under Melanocortin receptor 4 (Homo sapiens, UniProt P32245): IC50 value of Cc1cc2c(cc1Cl)C1(CCN(C(=O)[C@@H]3CC(N(C)C4CCOCC4)C[C@H]3c3ccc(F)cc3F)CC1)C[C@@H]2C(C)(C)c1ncnn1C (stereo partly drawn) ? 0.43

---

Literature-derived log10 IC50 for UniProt:P32245 follows.
Please interpret these as log10 of IC50 where IC50 is in µM.

compound: CCC(C)(C)C1(C(=O)NC(C)(C)C)CCN(C(=O)[C@H](Cc2ccc(F)cc2)NC(=O)[C@H]2CN(C)CCN2)CC1
log10 IC50: -1.18
//
compound: CN1CCN[C@@H](C(=O)N[C@@H](Cc2ccc(F)cc2)C(=O)N2CCC(C(=O)NC(C)(C)C)(C3C=CC(=O)CC3)CC2)C1 (some centres not stated)
log10 IC50: -0.46
//
compound: CS(=O)(=O)N(CC1CC1)c1ccccc1N1CCN(C(=O)[C@H](CC(=O)N2CCNCC2)Cc2ccc(Cl)cc2)CC1
log10 IC50: -0.66
//
compound: CS(=O)(=O)Nc1ccccc1N1CCN(C(=O)[C@@H](Cc2ccc(Cl)cc2)NC(=O)[C@@H]2Cc3ccccc3CN2)CC1
log10 IC50: -0.47

Here is the next item to consider.
Under UniProt:P32245: log10 IC50 value of "Cn1nnc(CC2(C3CCCCC3)CCN(C(=O)[C@@H](Cc3ccc(Cl)cc3)NC(=O)[C@H]3Cc4ccccc4CN3)CC2)n1" ? -2.92

---

Literature-derived IC50 for UniProtKB P32245 follows.
Binary call on IC50 with cut-off 20 nM: strictly below means label 1, and equality or higher means label 0.

compound: CCCCC1(CC#N)CCN(C(=O)[C@H](Cc2ccc(Cl)cc2)NC(=O)[C@H]2Cc3ccccc3CN2)CC1
class: label 0
--
compound: CC1CCC(C2(C(=O)NC(C)(C)C)CCN(C(=O)[C@H](Cc3ccc(F)cc3)NC(=O)[C@H]3CN(C)CCN3)CC2)CC1 (stereo partly drawn)
class: label 1
--
compound: Cn1nnnc1CC1(C2CCCCC2)CCN(C(=O)[C@H](Cc2ccc(Cl)cc2)NC(=O)[C@H]2Cc3ccccc3CN2)CC1
class: label 1
--
compound: CC(=O)N[C@H]1CSSC[C@@H](C(=O)N2CCC[C@H]2C(=O)N2CCC[C@H]2C(=O)N[C@@H](CCCCN)C(=O)N[C@@H](CC(=O)O)C(N)=O)NC(=O)[C@H](Cc2c[nH]c3ccccc23)NC(=O)[C@H](CCCNC(=N)N)NC(=O)[C@@H](Cc2ccccc2)NC(=O)[C@@H]2CCCN2C(=O)[C@H](CCC(=O)O)NC1=O
class: label 0
--
compound: CCN(C(C)=O)C(C)c1ccccc1N1CCN(C(=O)[C@H](CC(=O)N2CCSC2)Cc2ccc(Cl)cc2)CC1 (stereo partly drawn)
class: label 1

Next, consider the following compound.
Regarding "CS(=O)(=O)N(CC1CC1)c1ccccc1N1CCN(C(=O)[C@@H](Cc2ccc(Cl)cc2)NC(=O)c2ccc3ccccc3c2)CC1" , kindly confirm whether its IC50 is beneath 20 nM. label 0

---

Literature-derived pIC50 for UniProt:P32245 follows.
To interpret pIC50, take it as minus log10 of a concentration measured in moles per litre.

Answered examples (2):
compound: CC(=O)N[C@H](Cc1ccccc1)C(=O)N(CCCCNC(=N)N)C1CCC(N(CCc2c[nH]c3ccccc23)C(C)=O)CC1 (stereo in doubt; cis)
outcome measure: pIC50
measured result: 8.11
//
compound: CN1CCN[C@@H](C(=O)N[C@@H](Cc2ccc(F)cc2)C(=O)N2CCC(C(=O)NC(C)(C)C)(C3CCC(C)(C)CC3)CC2)C1
outcome measure: pIC50
measured result: 6.79

Here is the next item to consider.
Consider the compound "Cn1nnnc1CC1(C2CCCCC2)CCN(C(=O)[C@@H](Cc2ccc(Cl)cc2)NC(=O)[C@H]2Cc3ccccc3CN2)CC1" and give its measured pIC50. 9.52

---

Literature-derived log10 of IC50 for Melanocortin receptor 4 (Homo sapiens, UniProt P32245) follows.
Please interpret these as log10 of IC50 where IC50 is in nM.

compound: CC(=O)N[C@@H](Cc1ccccc1)C(=O)N(CCCCN)C1CCC(N(CCc2c[nH]c3ccccc23)C(C)=O)CC1 (some centres undefined)
log10 of IC50: 3.97
//
compound: CC(C)(C)OC(=O)N1CCN(C(=O)C[C@H](Cc2ccc(Cl)cc2)C(=O)N2CCN(c3ccccc3N(CC3CC3)S(C)(=O)=O)CC2)CC1
log10 of IC50: 0.52
//
compound: CCCCC(=O)N[C@]1(C(=O)N[C@H](Cc2ccccc2)C(=O)N[C@@H](CCCNC(=N)N)C(=O)N[C@@H](Cc2c[nH]c3ccccc23)C(=O)NCC(N)=O)CC[C@H](c2ccc(OCC)cc2)CC1
log10 of IC50: 1.63
//
compound: O=C(N[C@H](Cc1ccc(Cl)cc1)C(=O)N1CCN(c2ccccc2NS(=O)(=O)Cc2ccccc2)CC1)[C@@H]1Cc2ccccc2CN1
log10 of IC50: 2.86
//
compound: CS(=O)(=O)N(CC1CC1)c1ccccc1N1CCN(C(=O)[C@H](CC(=O)N2CCN(CC3CC3)CC2)Cc2ccc(Cl)cc2)CC1
log10 of IC50: 0.48

Under Melanocortin receptor 4 (Homo sapiens, UniProt P32245): log10 of IC50 value of CCN(C(C)=O)C(C)c1ccccc1N1CCN(C(=O)[C@H](CC(=O)N2CCN(C(=O)OC(C)(C)C)CC2)Cc2ccc(Cl)cc2)CC1 (some centres undefined) ? 0.30

Under Melanocortin receptor 4 (Homo sapiens, UniProt P32245): log10 of IC50 value of "CC(=O)N[C@H]1CSSC[C@@H](C(=O)N2CCC[C@H]2C(=O)N2CCC[C@H]2C(=O)N[C@@H](CCCCN)C(=O)N[C@@H](CC(=O)O)C(N)=O)NC(=O)[C@H](Cc2c[nH]c3ccccc23)NC(=O)[C@H](CCCN=C(N)N)NC(=O)[C@@H](Cc2ccc3ccccc3c2)NC(=O)[C@H](Cc2c[nH]cn2)NC(=O)[C@H](CCC(=O)O)NC1=O" ? 0.53

Under Melanocortin receptor 4 (Homo sapiens, UniProt P32245): log10 of IC50 value of CCN(C(C)=O)C(C)c1ccccc1N1CCN(C(=O)[C@H](CC(=O)NCc2ccccn2)Cc2ccc(Cl)cc2)CC1 (some centres undefined) ? 1.51
